- Assay System: recombinant human PARP (Homo sapiens)
- Sequence (P09874 whole entry): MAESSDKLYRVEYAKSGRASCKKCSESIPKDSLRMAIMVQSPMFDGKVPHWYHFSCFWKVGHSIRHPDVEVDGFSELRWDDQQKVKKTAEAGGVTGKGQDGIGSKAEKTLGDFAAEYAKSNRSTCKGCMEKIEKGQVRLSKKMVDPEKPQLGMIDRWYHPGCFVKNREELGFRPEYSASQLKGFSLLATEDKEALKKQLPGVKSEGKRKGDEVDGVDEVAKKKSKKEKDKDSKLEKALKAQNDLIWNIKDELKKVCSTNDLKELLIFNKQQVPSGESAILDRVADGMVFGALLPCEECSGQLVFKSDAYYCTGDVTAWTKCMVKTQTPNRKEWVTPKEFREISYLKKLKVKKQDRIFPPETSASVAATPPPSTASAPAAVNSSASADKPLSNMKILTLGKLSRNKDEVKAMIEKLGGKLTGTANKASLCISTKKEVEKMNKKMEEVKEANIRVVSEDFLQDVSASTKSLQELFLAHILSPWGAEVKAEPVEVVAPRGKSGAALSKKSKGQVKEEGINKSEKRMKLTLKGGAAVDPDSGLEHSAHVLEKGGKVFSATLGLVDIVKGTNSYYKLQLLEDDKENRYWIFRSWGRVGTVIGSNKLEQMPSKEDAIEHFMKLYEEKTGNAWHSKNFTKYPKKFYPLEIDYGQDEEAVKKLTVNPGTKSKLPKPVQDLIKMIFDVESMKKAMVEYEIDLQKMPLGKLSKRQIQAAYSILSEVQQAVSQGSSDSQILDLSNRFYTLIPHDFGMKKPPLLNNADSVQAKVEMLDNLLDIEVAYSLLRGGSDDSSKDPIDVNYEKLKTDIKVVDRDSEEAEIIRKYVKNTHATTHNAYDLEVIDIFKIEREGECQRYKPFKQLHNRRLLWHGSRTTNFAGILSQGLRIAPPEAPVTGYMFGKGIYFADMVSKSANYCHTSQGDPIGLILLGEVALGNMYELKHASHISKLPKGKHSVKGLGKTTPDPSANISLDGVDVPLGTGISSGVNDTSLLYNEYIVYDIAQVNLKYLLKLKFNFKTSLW
- Test Description: PARP enzyme activity inhibitory action
- Test Parameters: recombinant human PARP (Trevigen), 3H-NAD, activated DNA, 25° C. for 15 min
- Protocol: After incubation at 25° C. for 15 min., the reaction was stopped by adding 20% trichloroacetic acid, and the resulting acid insoluble fraction was adsorbed to a GF/B filter. Then, the filter was washed several times with 5% trichloroacetic acid, and the radioactivity on the filter was measured with a liquid scintillation counter.
Structures can show the parent of a compound that is named as a salt.

| Compound | Assay System | IC50 [nM] |
| --- | --- | --- |
| CN1CCN(Cc2nn(C)c3[nH]c(=O)c4ccccc4c23)CC1 [Ex. 21] | recombinant human PARP (Homo sapiens) | 143 |
| CN1CCC(c2c[nH]c(=O)c3cc(F)ccc23)CC1 [Ex. 47, hydrochloride] | recombinant human PARP (Homo sapiens) | 23 |
| O=c1[nH]cc(C2CCNCC2)c2ccccc12 [Ex. 31, hydrochloride] | recombinant human PARP (Homo sapiens) | 31 |
| CN1CCC(c2c[nH]c(=O)c3ccccc23)CC1 [Ex. 33] | recombinant human PARP (Homo sapiens) | 40 |
| CN1CCC(c2nn(C)c3[nH]c(=O)c4ccccc4c23)CC1 [Ex. 209] | recombinant human PARP (Homo sapiens) | 43 |
| CN(C)CC(=O)c1c(N)[nH]c(=O)c2ccccc12 [Ex. 1, hydrochloride monohydrate] | recombinant human PARP (Homo sapiens) | 43 |
